Every entry's value here was drawn from patent US9296774B2.

- Test system: AsPc human pancreatic cancer cells
- method_notes: Mouse transplant tumor, AsPc human pancreatic cancer
- condition_info: 125 mg/kg once a day for 7 days, animal weight at start
Reported weight start by item:
Respond numerically, and do not add a unit to the figure.

Here is how some compounds turned out for weight start.
[[record]]
compound = "CC(=O)OCC1OC(OP(=O)(NCCCl)NCCCl)CC(Br)C1OC(C)=O (single isomer, unassigned)"
measurement = 18.3

[[record]]
compound = "CC(=O)OCC1OC(OP(=O)(NCCCl)NCCCl)C(Br)CC1OC(C)=O (single isomer, unassigned)"
measurement = 18.3

[[record]]
compound = "CC(=O)OCC1OC(OP(=O)(O)N(CCCl)CCCl)C(Br)CC1OC(C)=O (centres unmarked)"
measurement = 18.2

[[record]]
compound = "CC(=O)OCC1OC(OP(=O)(O)N(CCCl)CCCl)CC(Br)C1OC(C)=O (centres unmarked)"
measurement = 18.3


Below: the item to evaluate.
*Q* I'd like to know its weight start. The compound in question is CC(=O)OCC1OC(Br)C(Br)CC1OC(C)=O (single isomer, unassigned)
*A* 18.2

====

- Test system: AsPc human pancreatic cancer cells
- method_notes: Mouse transplant tumor, AsPc human pancreatic cancer;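 further: Saline-treated mice served as the control group, with a CTX-treated group as positive reference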
- condition_info: 125 mg/kg once a day for 7 days
Reported Weight of tumor by item:

[[record]]
compound = "CC(=O)OCC1OC(Br)C(Br)CC1OC(C)=O (single isomer, unassigned) [Compound 3]"
measurement = 0.5

[[record]]
compound = "COc1cc(C2c3cc4c(cc3C(C3OC(COC(C)=O)C(OC(C)=O)CC3Br)C3COC(=O)C23)OCO4)cc(OC)c1O (stereo not drawn) [Compound 14]"
measurement = 0.3

[[record]]
compound = "CC(=O)OCC1OC(OP(=O)(NCCCl)NCCCl)CC(Br)C1OC(C)=O (single isomer, unassigned) [Compound 5]"
measurement = 0.4

[[record]]
compound = "CC(=O)OCC1OC(OP(=O)(O)N(CCCl)CCCl)C(Br)CC1OC(C)=O (stereo not drawn) [Compound 12]"
measurement = 0.5

[[record]]
compound = "CC(=O)OCC1OC(OP(=O)(O)N(CCCl)CCCl)CC(Br)C1OC(C)=O (stereo not drawn) [Compound 10]"
measurement = 0.5


Below: the item to evaluate.
*Q* I'd like to know its Weight of tumor. The compound in question is CC(=O)OCC1OC(OP(=O)(NCCCl)NCCCl)C(Br)CC1OC(C)=O (single isomer, unassigned) [Compound 7]
*A* 0.6

====

- Tested on: MGC human stomach cancer cells
- method_notes: Mouse transplant tumor, MGC human stomach cancer;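 further: control group received saline vehicle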
- condition_info: 125 mg/kg once a day for 7 days, animal weight at start
Reported weight start by item:
Respond numerically, and do not add a unit to the figure.

[[record]]
compound = "CC(=O)OCC1OC(OP(=O)(NCCCl)NCCCl)CC(Br)C1OC(C)=O (single isomer, unassigned)"
endpoint_name = "weight start"
measurement = 18.3

[[record]]
compound = "CC(=O)OCC1OC(OP(=O)(NCCCl)NCCCl)C(Br)CC1OC(C)=O (single isomer, unassigned)"
endpoint_name = "weight start"
measurement = 18.3

[[record]]
compound = "CC(=O)OCC1OC(OP(=O)(O)N(CCCl)CCCl)CC(Br)C1OC(C)=O (centres unmarked)"
endpoint_name = "weight start"
measurement = 18.3

[[record]]
compound = "CC(=O)OCC1OC(OP(=O)(O)N(CCCl)CCCl)C(Br)CC1OC(C)=O (centres unmarked)"
endpoint_name = "weight start"
measurement = 18.2


*Q* I'd like to know its weight start. The compound in question is CC(=O)OCC1OC(Br)C(Br)CC1OC(C)=O (single isomer, unassigned)
*A* 18.2
